Listed compounds paired with reported Ki
biological target: UniProt:P20272; assay: CB1 receptor rat binding assay ([3H]SR141716A, rat brain membranes); conditions: rat brain membranes, [3H]SR141716A; read-out: Binding rat pKi (converted)
Sequence (P20272 whole entry): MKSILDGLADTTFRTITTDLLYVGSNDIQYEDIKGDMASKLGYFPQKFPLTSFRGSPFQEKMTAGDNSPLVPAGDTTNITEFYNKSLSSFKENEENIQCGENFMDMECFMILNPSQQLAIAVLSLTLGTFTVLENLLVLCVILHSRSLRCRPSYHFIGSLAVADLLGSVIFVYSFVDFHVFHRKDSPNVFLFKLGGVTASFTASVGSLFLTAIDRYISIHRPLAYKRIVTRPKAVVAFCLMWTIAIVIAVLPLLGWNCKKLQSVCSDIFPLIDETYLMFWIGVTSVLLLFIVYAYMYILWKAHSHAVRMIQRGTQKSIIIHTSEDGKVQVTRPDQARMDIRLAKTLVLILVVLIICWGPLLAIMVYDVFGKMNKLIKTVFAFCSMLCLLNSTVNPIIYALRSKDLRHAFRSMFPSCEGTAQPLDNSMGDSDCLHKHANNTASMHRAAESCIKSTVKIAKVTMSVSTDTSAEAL
Number only, in nM; omit the unit.

Prompt line: Could you share what Ki was measured for O=C(NCc1ccccc1Br)c1ccc2c(c1)N=C(C1CCCCC1)c1ccccc1S2 [drawing 1392] , tested on UniProt:P20272?
Response line: 5.01

Next:
Prompt line: Could you share what Ki was measured for CCCCNC(=O)c1ccc2c(c1)N=C(c1cccc(Cl)c1)c1ccccc1S2 [drawing 1479] , tested on UniProt:P20272?
Response line: 7.94

Prompt line: Entry CC(CNC(=O)c1ccc2c(c1)N=C(N1CCCCC1)c1cc(F)ccc1S2)c1ccccc1 (centres unmarked) [drawing 1513] please
Response line: 79.4

Prompt line: Entry CCCC1=Nc2cc(C(=O)NC3CCC(C)CC3)ccc2Sc2ccccc21 (centres unmarked) [drawing 1437] please
Response line: 50.1

Prompt line: Entry CC(C)CNC(=O)c1ccc2c(c1)N=C(c1ccc(Cl)cn1)c1ccc(F)cc1S2 [drawing 1229] please
Response line: 15.8

Prompt line: Entry CCN(CCNC(=O)c1ccc2c(c1)N=C(c1ccccc1F)c1ccccc1S2)c1ccccc1 [drawing 1302] please
Response line: 20

Data origin: patent US20080090805A1
